Hello, the source for this data is patent US6512097, in case you need it.

# ASSAY_SYSTEM: T1, c-erbB-2 ECD with a Ser-Gly-His6 C-terminal fusion (UniProt P04626 23-652)
# T1 construct: extracellular domain; Expressed from CHO cells, IMAC purified; coupled to a CM5 chip, coated on plates, or biotinylated with NHS-LC-biotin; also called c-erbB-2 extracellular domain; biotinylated c-erbB-2 ECD
# TEST_SUMMARY: SPR BIAcore
API: label(entry) gives Fulfilled if the entry's Kd is strictly smaller than 0.3 nM; on equality or larger values it gives Not fulfilled.

Query string: Dear colleague, could you confirm whether Kd of C6MH3-B27 (scFv, C6ML3-9 sFv, VH CDR3 library B mutant) scFv: QVQLLQSGAELKKPGESLKISCKGSGYSFTSYWIAWVRQMPGKGLEYMGLIYPGDSDTKYSPSFQGQVTISVDKSVSTAYLQWSSLKPSDSAVYFCARHDVGYCKNSRCAKWPEYFQHWGQGTLVTVSSGGGGSGGGGSGGGGSQSVLTQPPSVSAAPGQKVTISCSGSSSNIGNNYVSWYQQLPGTAPKLLIYGHTNRPAGVPDRFSGSKSGTSASLAISGFRSEDEADYYCASWDYTLSGWVFGGGTKLTVLG falls below 0.3 nM? Thanks.
Result string: Not fulfilled

Query string: Dear colleague, could you confirm whether Kd of C6MH3-B39 (scFv, C6ML3-9 sFv, VH CDR3 library B mutant) scFv: QVQLLQSGAELKKPGESLKISCKGSGYSFTSYWIAWVRQMPGKGLEYMGLIYPGDSDTKYSPSFQGQVTISVDKSVSTAYLQWSSLKPSDSAVYFCARHDVGYCTDPTCAKWPEYFQHWGQGTLVTVSSGGGGSGGGGSGGGGSQSVLTQPPSVSAAPGQKVTISCSGSSSNIGNNYVSWYQQLPGTAPKLLIYGHTNRPAGVPDRFSGSKSGTSASLAISGFRSEDEADYYCASWDYTLSGWVFGGGTKLTVLG falls below 0.3 nM? Thanks.
Result string: Not fulfilled

Query string: Dear colleague, could you confirm whether Kd of C6MH3-B47 (scFv, C6ML3-9 sFv, VH CDR3 library B mutant) scFv: QVQLLQSGAELKKPGESLKISCKGSGYSFTSYWIAWVRQMPGKGLEYMGLIYPGDSDTKYSPSFQGQVTISVDKSVSTAYLQWSSLKPSDSAVYFCARHDVGYCTDRSCAKWPEYFQHWGQGTLVTVSSGGGGSGGGGSGGGGSQSVLTQPPSVSAAPGQKVTISCSGSSSNIGNNYVSWYQQLPGTAPKLLIYGHTNRPAGVPDRFSGSKSGTSASLAISGFRSEDEADYYCASWDYTLSGWVFGGGTKLTVLG falls below 0.3 nM? Thanks.
Result string: Fulfilled
